# System: thymus cancer cells (Ty-82 cells)
# measurement protocol: Cytotoxicity to thymus cancer cells (Ty-82 cells), WST-1
# condition: Homo sapiens, TY82, 72 h, read-out: Ty-82 Cytotoxicity IC50
Each record here notes measured IC50.
reported property: IC50

In [3]: df
Out[3]:
                              smiles_record  reported_property  result
0  COc1cc2nc(NCCCCNC(=O)CC(C)C)c3nnc(C)n3c2cc1OC               IC50  170 nM
1  COc1cc2nc(NCCCCNC(=O)OC(C)C)c3nnc(C)n3c2cc1C               IC50  200 nM
2  Cc1nnc2c(NCCCCNC(=O)c3ccccc3Cl)nc3ccccc3n12               IC50  850 nM
3  Cc1nnc2c(NCCCCNC(=O)OC(C)(C)C)nc3cc(C(=O)NCc4ccccc4)ccc3n12               IC50  760 nM
4  COc1cc2nc(NCCCCNC(=O)OC(C)C)c3nnc(C)n3c2cc1OC               IC50  120 nM
5  Cc1nnc2c(NCCCCNC(=O)c3ccccc3)nc3ccccc3n12               IC50  950 nM
6  Cc1nnc2c(NCCCCNC(=O)OC(C)(C)C)nc3cc(C(=O)NC(C)C)ccc3n12               IC50  640 nM
7  COCCOc1cc2nc(NCCCCNC(=O)OC(C)C)c3nnc(C)n3c2cc1OCCOC               IC50  580 nM
8   Cc1nnc2c(NCCCCNC(=O)CC(C)C)nc3ccccc3n12               IC50  260 nM

----------
Entries and their pIC50
# tested target: BRD4 (BD1+BD2) bromodomain (Homo sapiens (Human), UniProt O60885)
# measurement protocol: BRD4 binding inhibition (AlphaScreen, GST-BRD4 vs tetraacetylated histone H4 peptide)
# condition: GST-BRD4 (BD1+BD2) / biotinylated acetyl-histone H4 (Lys5,8,12,16) peptide; read-out: IC50, BRD4 binding inhibition
pIC50: −log10 of the molar value.
reported property: pIC50

>>> df
                                   compound                             tested_target  result
0  Cc1nnc2c(NCCCCNC(=O)CC(C)C)nc3cc(NS(=O)(=O)CC(F)(F)F)ccc3n12 [Example 258]  BRD4 (BD1+BD2) bromodomain (Homo sapiens (Human), UniProt O60885)  ≥ 7.30
1  COc1cc2nc(NCCCCNC(=O)OC(C)C)c3nnc(C)n3c2cc1C [Example 467]  BRD4 (BD1+BD2) bromodomain (Homo sapiens (Human), UniProt O60885)  ≥ 7.30
2  C=CCOC(=O)NCCCCNc1nc2cc(OC)c(OC)cc2n2c(C)nnc12 [Example 65]  BRD4 (BD1+BD2) bromodomain (Homo sapiens (Human), UniProt O60885)  ≥ 7.30

----------
# tested target: BRD4 (BD1+BD2) bromodomain (Homo sapiens (Human), UniProt O60885)
# measurement protocol: BRD4 binding inhibition (AlphaScreen, GST-BRD4 vs tetraacetylated histone H4 peptide)
# condition: GST-BRD4 (BD1+BD2) vs biotinylated acetyl-histone H4 peptide, AlphaScreen; read-out: BRD4 IC50
Binning scheme for IC50: LOW: < 40 nM; MEDIUM: ≥ 40 nM and < 60 nM; HIGH: ≥ 60 nM

                                    molecule                             tested_target  class_assignment
 0  COc1cc2nc(NCCCCNC(=O)CC(C)C)c3nnc(C)n3c2cc1NO [Example 558]  BRD4 (BD1+BD2) bromodomain (Homo sapiens (Human), UniProt O60885)            MEDIUM
 1  Cc1nnc2c(NCCCCNC(=O)[C@@H](O)C(C)C)nc3cc(N4CCSCC4)ccc3n12 [Example 525]  BRD4 (BD1+BD2) bromodomain (Homo sapiens (Human), UniProt O60885)               LOW
 2  CC(=O)Nc1ccc2nc(NCCCCNC(=O)c3ccccc3)c3nnc(C)n3c2c1 [Example 548]  BRD4 (BD1+BD2) bromodomain (Homo sapiens (Human), UniProt O60885)            MEDIUM
 3  COc1cc2c(cc1F)nc(NCCCCNC(=O)CC(C)C)c1nnc(C)n12 [Example 575]  BRD4 (BD1+BD2) bromodomain (Homo sapiens (Human), UniProt O60885)            MEDIUM
 4  COc1ccc2c(c1)nc(NCCCCNC(=O)[C@@H](NC(=O)OC(C)C)C(C)C)c1nnc(C)n12 [Example 320]  BRD4 (BD1+BD2) bromodomain (Homo sapiens (Human), UniProt O60885)               LOW
 5  COc1ccc2c(c1)nc(NCCCCNC(=O)OC(C)C)c1nnc(C(C)C)n12 [Example 628]  BRD4 (BD1+BD2) bromodomain (Homo sapiens (Human), UniProt O60885)            MEDIUM
 6  Cc1nnc2c(NCCCCNC(=O)OC(C)(C)C)nc3cc(N)ccc3n12 [Example 243]  BRD4 (BD1+BD2) bromodomain (Homo sapiens (Human), UniProt O60885)              HIGH
 7  Cc1nnc2c(NCCCCNC(=O)c3ccc(Cl)c(Cl)c3)nc3ccccc3n12 [Example 16]  BRD4 (BD1+BD2) bromodomain (Homo sapiens (Human), UniProt O60885)            MEDIUM
 8  C=CCOC(=O)NCCCCNc1nc2cc(OC)c(OC)cc2n2c(C)nnc12 [Example 65]  BRD4 (BD1+BD2) bromodomain (Homo sapiens (Human), UniProt O60885)               LOW
 9  Cc1nnc2c(NCCCCNC(=O)[C@H](O)C(C)C)nc3cc(N4CCSCC4)ccc3n12 [Example 524]  BRD4 (BD1+BD2) bromodomain (Homo sapiens (Human), UniProt O60885)              HIGH
10  COc1ccc2c(c1)nc(NCCCCNC(=O)[C@@H](NC(=O)C(C)(C)C)C(C)C)c1nnc(C)n12 [Example 323]  BRD4 (BD1+BD2) bromodomain (Homo sapiens (Human), UniProt O60885)               LOW
11  CCC(C)C(=O)NCCCCNc1nc2cc(OC)ccc2n2c(C)nnc12 (centres unmarked) [Example 291]  BRD4 (BD1+BD2) bromodomain (Homo sapiens (Human), UniProt O60885)              HIGH
12  Cc1noc(C)c1-c1ccc2c(c1)nc(NCCCCNC(=O)CC(C)C)c1nnc(C)n12 [Example 585]  BRD4 (BD1+BD2) bromodomain (Homo sapiens (Human), UniProt O60885)               LOW
